Listing of entries alongside the reported log10 EC50.
- ASSAY SYSTEM: ΔF508-CFTR (Homo sapiens, UniProt P13569, DEL508-508)
- Construct: host or cells: CFBE41o-, doxycycline-inducible
- Sequence (P13569 with tags, fused parts or gaps DEL508-508): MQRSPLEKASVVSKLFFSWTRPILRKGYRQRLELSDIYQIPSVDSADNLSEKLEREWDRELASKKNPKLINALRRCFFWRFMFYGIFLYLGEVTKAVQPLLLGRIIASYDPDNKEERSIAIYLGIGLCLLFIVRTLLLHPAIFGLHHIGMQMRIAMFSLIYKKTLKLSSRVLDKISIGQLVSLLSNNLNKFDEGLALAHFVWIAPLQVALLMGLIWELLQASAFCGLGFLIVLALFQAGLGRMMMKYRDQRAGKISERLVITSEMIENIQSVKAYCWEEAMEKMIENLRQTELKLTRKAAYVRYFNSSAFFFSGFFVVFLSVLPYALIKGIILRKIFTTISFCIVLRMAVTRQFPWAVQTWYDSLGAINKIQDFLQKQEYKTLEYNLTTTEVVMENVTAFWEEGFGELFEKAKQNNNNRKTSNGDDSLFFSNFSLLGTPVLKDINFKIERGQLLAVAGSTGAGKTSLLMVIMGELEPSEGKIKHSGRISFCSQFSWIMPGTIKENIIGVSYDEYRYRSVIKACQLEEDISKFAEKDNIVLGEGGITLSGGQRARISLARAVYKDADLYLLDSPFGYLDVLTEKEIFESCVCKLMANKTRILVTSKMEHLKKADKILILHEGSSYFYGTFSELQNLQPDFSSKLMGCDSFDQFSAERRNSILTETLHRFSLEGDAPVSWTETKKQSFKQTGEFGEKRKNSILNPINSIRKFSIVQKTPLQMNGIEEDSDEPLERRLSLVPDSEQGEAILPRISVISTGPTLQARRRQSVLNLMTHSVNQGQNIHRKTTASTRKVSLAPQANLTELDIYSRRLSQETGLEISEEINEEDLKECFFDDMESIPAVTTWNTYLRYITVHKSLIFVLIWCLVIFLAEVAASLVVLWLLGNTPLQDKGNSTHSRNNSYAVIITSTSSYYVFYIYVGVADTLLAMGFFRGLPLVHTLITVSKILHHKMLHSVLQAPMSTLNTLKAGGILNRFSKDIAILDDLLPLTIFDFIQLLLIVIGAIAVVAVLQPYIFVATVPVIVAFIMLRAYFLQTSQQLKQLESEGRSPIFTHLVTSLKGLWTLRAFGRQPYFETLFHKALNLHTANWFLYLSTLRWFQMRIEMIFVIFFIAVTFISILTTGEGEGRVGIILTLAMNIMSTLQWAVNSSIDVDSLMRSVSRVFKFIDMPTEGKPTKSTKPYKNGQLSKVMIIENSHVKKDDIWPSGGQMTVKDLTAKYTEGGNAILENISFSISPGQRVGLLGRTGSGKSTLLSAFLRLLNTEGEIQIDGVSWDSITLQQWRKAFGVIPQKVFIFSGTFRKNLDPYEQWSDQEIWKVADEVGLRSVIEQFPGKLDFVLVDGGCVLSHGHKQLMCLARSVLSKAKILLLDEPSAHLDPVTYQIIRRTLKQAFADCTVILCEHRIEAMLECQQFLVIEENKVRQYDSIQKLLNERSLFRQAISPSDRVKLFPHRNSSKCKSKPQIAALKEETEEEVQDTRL
- ASSAY COMMENT: CFTR cell surface levels using HRP-tagged ΔF508-CFTR expressing CFBE cells, intrinsic corrector capacity
- Type: cell-based
- ASSAY CONDITIONS: HRP-tagged ΔF508-CFTR expressing CFBE41o- cells; compound alone (intrinsic corrector capacity); 20 hours at 33° C.; read-out: EC50
- From the text: Measuring CFTR Cell Surface Levels Using HRP-Tagged ΔF508-CFTR Expressing CFBE Cells The HRP-tagged ΔF508-CFTR cell assay measures the expression of CFTR-ΔF508 at the plasma membrane. […] When HRP-tagged ΔF508-CFTR is present at the plasma membrane, the HRP enzyme activity can be measured. The amount of CFTR-ΔF508 that can be rescued to the plasma membrane is correlated with the amount of functional enzyme that can be measured. […]
Short version: log10 scale, EC50, nM.

// below: answered compounds
Query: What does the data say about its log10 EC50? Entry: Cc1cc(-n2nc(C3CCC3)c3c(N4CCC(N5CCOCC5)CC4)cc(C(=O)NS(=O)(=O)N(C)C)nc32)ccc1F
Response: 1.95

Query: What does the data say about its log10 EC50? Entry: COCCS(=O)(=O)NC(=O)c1cc(-c2ccc(OC)cc2)c2c(C)nn(CC(C)C)c2n1
Response: 2.97

Query: What does the data say about its log10 EC50? Entry: CCS(=O)(=O)NC(=O)c1cc(N2CCC(CN3CCCC3)CC2)c2c(C3CCC3)nn(-c3ccccc3)c2n1
Response: 2.62

Query: What does the data say about its log10 EC50? Entry: CN(C)S(=O)(=O)NC(=O)c1cc(N2CCC(N3CCC(F)CC3)CC2)c2c(C3CCC3)nn(-c3ccc(F)cc3)c2n1
Response: 2.14

More entries:
Query: What does the data say about its log10 EC50? Entry: COCCN(CCOC)c1ccc(-c2cc(C(=O)NS(C)(=O)=O)nc3c2c(C(C)C)nn3C2CCCCC2)cn1
Response: 2.81

Query: What does the data say about its log10 EC50? Entry: CC(C)c1nn(C2CCC(F)(F)CC2)c2nc(C(=O)NS(C)(=O)=O)cc(-c3ccc(N4CCOCC4)cc3)c12
Response: 2.93

Query: What does the data say about its log10 EC50? Entry: COCCS(=O)(=O)NC(=O)c1cc(N2CCC(OC)CC2)c2c(C3CCC3)nn(-c3ccccc3)c2n1
Response: 2.55

###

- ASSAY SYSTEM: ΔF508-CFTR (Homo sapiens, UniProt P13569, DEL508-508)
- Construct: host or cells: CFBE41o-, doxycycline-inducible
- ASSAY COMMENT: CFTR cell surface levels using HRP-tagged ΔF508-CFTR expressing CFBE cells, in the presence of a co-corrector
- Assay type: cell-based
- ASSAY CONDITIONS: HRP-tagged ΔF508-CFTR CFBE cells, in the presence of 3 μM co-corrector
READOUT NAME: % Activation (%)
// return numeric value only (unit: %, not printed)

// below: answered compounds
Query: What does the data say about its % Activation? Entry: COCCC1CCN(c2cc(C(=O)NS(C)(=O)=O)nc3c2c(C2CCC2)nn3-c2ccccc2)CC1 [Compound 183]
Response: 498.57

Query: What does the data say about its % Activation? Entry: COC1CCN(c2cc(C(=O)NS(C)(=O)=O)nc3c2c(C(C)C)nn3-c2cccc(N(C)C)c2)CC1 [Compound 155]
Response: 555.45

Query: What does the data say about its % Activation? Entry: CC(C)Oc1nn(C2CCCCC2)c2nc(C(=O)NS(C)(=O)=O)cc(-c3ccc(CN4CC5CN(C)CC5C4)cc3)c12 (stereo not shown) [Compound 636]
Response: 388.85

Query: What does the data say about its % Activation? Entry: CCS(=O)(=O)NC(=O)c1cc(-c2ccc(N3CCOCC3)nc2)c2c(C(C)C)nn(-c3cccc(N(C)C)c3)c2n1 [Compound 54]
Response: 593.12

Query: What does the data say about its % Activation? Entry: COC1CCN(S(=O)(=O)NC(=O)c2cc(N3CCC(N4CCOCC4)CC3)c3c(C4CCC4)nn(-c4ccc(F)cc4)c3n2)C1 (stereo not shown) [Compound 538]
Response: 427.95

More entries:
Query: What does the data say about its % Activation? Entry: CN1CCCCC1CCOc1cc(C(=O)NS(C)(=O)=O)nc2c1c(C1CCC1)nn2-c1ccccc1 (stereo not shown) [Compound 323]
Response: 292.85

Query: What does the data say about its % Activation? Entry: CN1CCN(S(=O)(=O)NC(=O)c2cc(OCC3CCOCC3)c3c(C4CCC4)nn(-c4ccccc4)c3n2)CC1 [Compound 361]
Response: 204.1
